test system: LOX IMVI melanoma; test: NCI tumour cell line growth inhibition, 48 h
propertyLabel: TGI (µM)
Give bare numbers, in µM.

recordSmiles	propertyLabel	unitSymbol	value
COc1cc(/C=C/C(=O)c2cccc(-n3cc(-c4ccccc4)[nH]c3=O)c2)cc(OC)c1OC	TGI	µM	1.67

**Query** // fetch TGI given entry O=C(O)c1ccc(N(/C=C/C(=O)C(F)(F)F)Cc2ccc(Cl)cc2)cc1
**Result** 51.8

###

test system: BT-549 breast; experiment: NCI tumour cell line growth inhibition, 48 h
Hi there, I'd appreciate the recorded TGI for every entry that follows.
Answers are plain numbers, in µM.

Example molecules with recorded TGI:
molecule	unitSymbol	TGI
COc1ccc(C2=NN(C(N)=S)C(c3ccc4c(c3)OCO4)C2)cc1 (stereo unspecified)	µM	20.5
Cc1cn([C@@H]2O[C@H](CO[Si](C)(C)C(C)(C)C)[C@]3(O[C@H]3C(=O)NO)[C@H]2O[Si](C)(C)C(C)(C)C)c(=O)[nH]c1=O	µM	3.29
COc1cc2nc3n(c2cc1OC)C(O)c1c(Cl)nc(SC)nc1S3 (stereo unspecified)	µM	9.37
N=c1sc2ccccc2n1CCS (tested in a mixture with another compound)	µM	48.4
N#CCCNc1nonc1-c1nc2ccccc2n1CC(=O)c1ccc(N)cc1	µM	22.9

Would you mind giving TGI for every molecule in the list below?
1. CN(C)CCNC(=O)c1cc2c3cc(Cl)ccc3[nH]c2c2ncccc12
2. CC[C@@]1(OP(=O)(O)O)C(=O)OCc2c1cc1n(c2=O)Cc2cc3ccccc3nc2-1
3. O=C(/C=C\c1ccc(O)c(O)c1)c1ccccc1O
4. CCN(Cc1ccc(OC)cc1)c1ccc(CO)c(Cl)c1
5. CC(C)=CCC[C@@H](C)[C@H]1CC[C@@]2(C)[C@@H]3CC[C@H]4C(C)(C)[C@@H](O)CC[C@@]45C[C@@]35CC[C@]12C

**Result**
7.98
4.55
18.8
37.4
55.6
